target: MAGE-A11:PCF11 (Homo sapiens (Human), UniProt P43364); experiment: TR-FRET single point screening at 15 μM; format: binding; set-up: unit not given here; details: single point TR-FRET screening at 15 μM against MAGE-A11:PCF11
Sequence (P43364 218-429): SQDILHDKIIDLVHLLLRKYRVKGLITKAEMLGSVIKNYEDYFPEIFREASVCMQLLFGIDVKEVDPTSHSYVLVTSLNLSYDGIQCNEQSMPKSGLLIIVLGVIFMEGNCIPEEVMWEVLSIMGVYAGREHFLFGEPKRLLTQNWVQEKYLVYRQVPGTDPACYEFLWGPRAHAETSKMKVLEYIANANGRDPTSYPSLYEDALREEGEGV
Values of TR-FRET signal strictly less than -3 map to satisfied, and values of at least -3 map to not satisfied.

Consider the worked cases shown below.
• Clc1ccc2c(NC3CCN(Cc4ccc5c(c4)OCO5)CC3)ccnc2c1 [SJ000523087] = not satisfied
• CCN(CC)CCCC(C)Nc1ccnc2cc(Cl)ccc12 (centres unmarked) [SJ000285185] = not satisfied
• COc1ccc2nc3cc(Cl)ccc3c(NCCCNCc3sccc3C)c2c1 [SJ000361094] = satisfied
• COc1cccc(CN2CCC(Nc3ccnc4cc(Cl)ccc34)CC2)c1 [SJ000523107] = not satisfied

Continue with the next compound.
QUERY: Given the entry CCOC(=O)c1cnc2ccc(OC)cc2c1N1CCN(C)CC1 [SJ000279507] , would its reported TR-FRET signal be below -3?
RESULT: not satisfied

---

Items are presented alongside their recorded IC50.
Molecular target: interaction between GST-MAGEA11 MHD and FAM-PCF11_4 peptide (MAGE-A11:PCF11) (Homo sapiens (Human), UniProt P43364)
Sequence (P43364 218-429): as above
Experiment: TR-FRET dose response competition assay for disruption of MAGE-A11:PCF11 binding
Conditions: Dose response TR-FRET screening of nine scaffold groups against MAGE-A11:PCF11; read-out: consensus IC50
Excerpt: TR-FRET Assays and High-throughput Screen. Terbium-anti-GST antibody, 1 M Tris pH 7.5 1 M MgCl2 and 1 M DTT were purchased from Invitrogen (Carlsbad, CA), BSA was purchased from Sigma (St. Louis, MO). Dimethyl sulfoxide (DMSO) was purchased from Fisher Scientific (Pittsburgh, PA). Black 384-well low volume plates and 384-well polypropylene compound plates were purchased from Corning Incorporated (Tewksbury, MA). […]
Your answer is read as µM, so omit the unit and give the number.

Examples with answers:
- COc1cccc(CNCCCNc2ccnc3cc(-c4cccc5ccccc45)ccc23)c1O: 16
- COC(=O)c1ccc(CNCCCNc2ccnc3cc(Cl)ccc23)cc1: 69.9
- CCCN1C(=O)c2ccccc2NC1c1cc(OC)c(OC)c(OC)c1 (stereo not drawn): 69.9
- CCN1CCN(Cc2ccc3c(c2)c2ccccc2n3CC)CC1: 69.9
- COc1cccc(CNCCCNc2ccnc3cc(Oc4ccc(Cl)cc4)ccc23)c1O: 20.7

Next compound, please.
// recorded IC50 for CCOc1ccc(-c2nc(C#N)c(N3CC(C)OC(C)C3)o2)cc1 (stereo not drawn) : 69.9

---

target: interaction between GST-MAGEA11 MHD and FAM-PCF11_4 peptide (MAGE-A11:PCF11) (Homo sapiens (Human)); assay: TR-FRET dose response competition assay for disruption of MAGE-A11:PCF11 binding; details: Dose response TR-FRET screening of nine scaffold groups against MAGE-A11:PCF11; read-out: consensus IC50
quantity.kind: IC50
Number first, unit second.

- CC(=O)N(C1=C(Cl)C(=O)c2ccccc2C1=O)c1ccc(F)cc1: 69.9 µM
- c1ccc(CCc2ccc3c(NCCCNCc4cccc5c4OCO5)ccnc3c2)cc1: 62.3 µM
- CCCCCOc1ccc(NC2=C(N)C(=O)c3ccccc3C2=O)cc1: 69.9 µM
- O=C(CNC(=O)c1ccc2[nH]c3ccccc3c2c1)NCCO: 69.9 µM
- N#Cc1nc(-c2ccc(F)cc2)oc1N1CCOCC1: 69.9 µM
- COC(=O)c1ccc(NC2=C(Cl)C(=O)c3ccccc3C2=O)cc1: 69.9 µM

Short answer for COc1cc(Cc2ccc3c(NCCCNCc4cccc(OC)c4O)ccnc3c2)cc(OC)c1 : IC50 was 33.6 µM

Measured IC50, CCc1ccc(CNCCCNc2ccnc3cc(C(F)(F)F)ccc23)cc1 : 40.9 µM

Reported IC50 of CCn1c2ccccc2c2cc(CNCCc3ccccc3)ccc21 : 69.9 µM

Lab note: measured IC50 of COc1cccc(OCc2cc(C3Nc4ccccc4C(=O)N3Cc3ccccc3)ccc2OC)c1 (stereo not drawn) was 69.9 µM

get_value(item= CCCn1c(-c2ccc(Cl)cc2)nc2c1c(=O)[nH]c(=O)n2Cc1ccccc1 , readout=IC50) returns 69.9 µM

compound CCCCn1c(-c2ccc(Cl)cc2)nc2c1c(=O)[nH]c(=O)n2Cc1ccccc1 , IC50 observed: 69.9 µM

Record summary for COc1ccc(CNC(=O)Cn2cnc3cc(-c4ccc(Cl)cc4)sc3c2=O)cc1 : reported IC50 = 69.9 µM
